Run Description: Pharmacokinetic studies in human, Compound I in plasma by LC/MS/MS
Type: in vivo
Particulars: human, plasma, iv, 325 mg/m2, Group 8, 325 mg/m^2 IV, Day 1, mean, n = 3; read-out: AUC∞
Measurement Type: AUC(0-inf) (ng·h/mL)
# unit: ng·h/mL | format: bare number

Name the reported AUC(0-inf) value associated with the compound Cc1cnc(CNC(=O)c2c(=O)c3ccc(N4CCCN(C)CC4)nc3n3c2sc2ccccc23)cn1 29100

====

Run Description: Pharmacokinetic studies in human, Compound I in plasma by LC/MS/MS
Format: in vivo
Particulars: human, plasma, iv, 475 mg/m2, Group 9, 475 mg/m^2 IV, Day 1, mean, n = 5
Measurement Type: clearance (mL/min)
Give the number; mL/min is assumed, so skip it.

Entry under review: Cc1cnc(CNC(=O)c2c(=O)c3ccc(N4CCCN(C)CC4)nc3n3c2sc2ccccc23)cn1 . Reported clearance? 460
